Tested on: SEM cells
Assay: cell viability relative to DMSO control; higher = less cytotoxic
Details: HPLM + 10% dialyzed FBS; 48 h; 0.19 µM
readout: cell viability (%)
// note: answer is a bare numeric in %

Worked examples follow.
| compound | unitLabel | cell viability |
| --- | --- | --- |
| Oc1ccc2ccccc2c1SSc1c(O)ccc2ccccc12 | % | 85.8 |
| OC[C@H]1OC(OC2=CC3=C(C(=C2)O)C(=O)\C(=C/O3)C4=CC=C(O)C=C4)[C@H](O)[C@@H](O)[C@@H]1O (some centres not stated) | % | 79.9 |
| COC(=O)Nc1nc2ccc([S+]([O-])c3ccccc3)cc2[nH]1 (configuration not stated) | % | 94.5 |
| Cc1cccc2c1CC[C@H](CN1CCC(c3c(Cl)cccc3Cl)CC1)C[C@@H]2O | % | 114 |

## Input Fill in the recorded cell viability for this compound, with SEM cells as test system: `CCOC(=O)O[C@]1(C(=O)OCCl)CC[C@H]2[C@@H]3CCC4=CC(=O)C=C[C@]4(C)[C@H]3[C@@H](O)C[C@@]21C`
## Output 99.3

## Input // next record C[C@@H]1C(=O)OC2[C@H](O)[C@]34[C@H]5C[C@@H](C(C)(C)C)[C@]36[C@@H](OC(=O)[C@@H]6O)O[C@@]4(C(=O)O5)[C@]21O (some centres not stated)
## Output 116

## Input // next record `C[N]1N=CC=C1C/2=C(\C)N(C(=O)C(=C2)/C(=O)NCC3=NC=C(C=C3)[S+](C)([O-])=O)C4=CC=CC(=C4)C(F)(F)F`
## Output 103

====

System: NOMO1
Assay: AUC of viability dose-response curve (% viability x log10 dose units); higher = less sensitive
Settings: RPMI 5 mM glucose + 10% dialyzed FBS; 48 h
Please use fulfilled for AUC of viability dose-response curve under 400 and not fulfilled for everything else, ties included.

Study these solved cases before continuing.
| substanceSmiles | categoryLabel |
| --- | --- |
| CCCCc1nc2cc(/C=C/C(=O)NO)ccc2n1CCN(CC)CC | fulfilled |
| CC(C)(C)OC(=O)Nc1ccc(-c2cc(C(=O)NCCCCCCC(=O)NO)no2)cc1 | fulfilled |
| CCOC(=O)N[C@@H]1CC[C@@H]2[C@@H](C1)C[C@H]1C(=O)O[C@H](C)[C@H]1[C@H]2/C=C/c1ccc(-c2cccc(F)c2)cn1 | not fulfilled |
| COc1cc2c(Nc3ccc(Cl)c(Cl)c3F)ncnc2cc1OC[C@@H]1C[C@@H]2CN(C)C[C@@H]2C1 | not fulfilled |
| Cn1ccc2cc3c(cc21)CCN3C(=O)Nc1cccnc1 | not fulfilled |

## Input Input `NCCc1ccc(O)c(O)c1` ; condition: AUC of viability dose-response curve strictly below 400. Does it hold?
## Output not fulfilled

## Input // next record `Cc1nc(N)ncc1-c1nc(N2CCOCC2)c2sc(C(C)(C)O)cc2n1`
## Output fulfilled

## Input // next record `COc1ccc(-c2ccc3cc(C(=O)O)ccc3c2)cc1C12CC3CC(CC(C3)C1)C2`
## Output fulfilled

## Input // next record `NC\1=N\C(=O)N(\C=C1F)[C@H]2C[C@H](O)[C@@H](CO)O2`
## Output fulfilled

## Input // next record `Nc1nc(NCCNc2ncc(-n3ccnc3)c(-c3ccc(Cl)cc3Cl)n2)ccc1[N+](=O)[O-]`
## Output not fulfilled

## Input // next record `O=C(Nc1cccc(Br)c1)c1cccc([S+](=O)([O-])N2CCCCCC2)c1`
## Output not fulfilled

## Input // next record `CS[C@H]1SC[C@@H]2C(=O)N(C)[C@H](C(C)C)C(=O)OC[C@H](NC(=O)c3cnc4ccccc4n3)C(=O)N[C@H](C)C(=O)N(C)[C@H]1C(=O)N(C)[C@H](C(C)C)C(=O)OC[C@H](NC(=O)c1cnc3ccccc3n1)C(=O)N[C@H](C)C(=O)N2C`
## Output fulfilled

## Input // next record `NC(=O)c1noc([C@H](CCCC2CCCCC2)CC(=O)NO)n1`
## Output not fulfilled

FYI, the data here is from the supplement of paper PMC11451515.
